assay: Pharmacokinetic analysis, plasma and tissue concentration; type: in vivo, CD1 mice; conditions: CD1, mouse, kidney, sc, 1 mg/kg
assay endpoint: concentration at 0.5 h
Your reply should be a number followed by the unit it is expressed in.

Q: Identify the reported concentration at 0.5 h for the following entry. COC(=O)C[C@](O)(CCCC(C)(C)O)C(=O)O[C@@H]1C(OC)=C[C@]23CCCN2CCc2cc4c(cc2[C@H]13)OCO4
Ans: 2010 ng/mL

###

assay: Pharmacokinetic analysis, plasma and tissue concentration; format: in vivo, CD1 mice; conditions: CD1, mouse, brain, sc, 1 mg/kg
assay endpoint: concentration at 0.5 h (µg/mL)
# output: bare number, implied unit µg/mL

Q: Tell me its concentration at 0.5 h given COC(=O)C[C@](O)(CCCC(C)(C)O)C(=O)O[C@@H]1C(OC)=C[C@]23CCCN2CCc2cc4c(cc2[C@H]13)OCO4 as the entry.
Ans: 0.011

###

assay: Pharmacokinetic analysis, plasma and tissue concentration; format: in vivo, CD1 mice; settings: CD1, mouse, kidney, po, 1 mg/kg
assay endpoint: concentration at 8 h
Returns: string containing the numeric result and its unit.

Q: Note concentration at 8 h for the molecule shown: COC(=O)C[C@](O)(CCCC(C)(C)O)C(=O)O[C@@H]1C(OC)=C[C@]23CCCN2CCc2cc4c(cc2[C@H]13)OCO4 [HHT, homoharringtonine]
Ans: 33.5 ng/mL

###

test: Pharmacokinetic analysis, plasma and tissue concentration; assay type: in vivo, CD1 mice; settings: CD1, mouse, spleen, po, 1 mg/kg
assay endpoint: concentration at 8 h (µg/mL)
Answer in µg/mL, number only, no unit symbol.

Q: Retrieve concentration at 8 h measured for COC(=O)C[C@](O)(CCCC(C)(C)O)C(=O)O[C@@H]1C(OC)=C[C@]23CCCN2CCc2cc4c(cc2[C@H]13)OCO4 [HHT, homoharringtonine] and print it.
Ans: 0.225

###

assay: Pharmacokinetic analysis, plasma and tissue concentration; format: in vivo, CD1 mice; settings: CD1, mouse, large intestine, sc, 1 mg/kg
assay endpoint: concentration at 8 h (ng/mL)
Note: unit ng/mL is implicit; provide only the numeric part.

Q: Please list concentration at 8 h recorded for the molecule COC(=O)C[C@](O)(CCCC(C)(C)O)C(=O)O[C@@H]1C(OC)=C[C@]23CCCN2CCc2cc4c(cc2[C@H]13)OCO4
Ans: 502

###

assay: Pharmacokinetic analysis, plasma and tissue concentration; format: in vivo, CD1 mice; settings: CD1, mouse, spleen, sc, 1 mg/kg
assay endpoint: concentration at 8 h
Write the figure, then the unit, nothing else.

Q: Give concentration at 8 h for COC(=O)C[C@](O)(CCCC(C)(C)O)C(=O)O[C@@H]1C(OC)=C[C@]23CCCN2CCc2cc4c(cc2[C@H]13)OCO4
Ans: 282 ng/mL

###

assay: Pharmacokinetic analysis, plasma and tissue concentration; assay type: in vivo, CD1 mice; conditions: CD1, mouse, kidney, po, 1 mg/kg
assay endpoint: concentration at 0.5 h (ng/mL)
The figure you give is taken to be in ng/mL; do not add the unit.

Q: Give recorded concentration at 0.5 h. COC(=O)C[C@](O)(CCCC(C)(C)O)C(=O)O[C@@H]1C(OC)=C[C@]23CCCN2CCc2cc4c(cc2[C@H]13)OCO4
Ans: 25.4

###

test: Pharmacokinetic analysis, plasma and tissue concentration; assay type: in vivo, CD1 mice; details: CD1, mouse, kidney, sc, 1 mg/kg
assay endpoint: concentration at 2 h (ng/mL)
Number in ng/mL, nothing else.

Q: Give concentration at 2 h for the following compound: COC(=O)C[C@](O)(CCCC(C)(C)O)C(=O)O[C@@H]1C(OC)=C[C@]23CCCN2CCc2cc4c(cc2[C@H]13)OCO4 [HHT, homoharringtonine]
Ans: 796

###

assay: Pharmacokinetic analysis, plasma and tissue concentration; assay type: in vivo, CD1 mice; conditions: CD1, mouse, pancreas, po, 1 mg/kg
assay endpoint: concentration at 2 h (ng/mL)
Give just the number in ng/mL; leave the unit off.

Q: Name the recorded concentration at 2 h of the item COC(=O)C[C@](O)(CCCC(C)(C)O)C(=O)O[C@@H]1C(OC)=C[C@]23CCCN2CCc2cc4c(cc2[C@H]13)OCO4 [HHT, homoharringtonine] in your answer.
Ans: 228

###

experiment: Pharmacokinetic analysis, plasma and tissue concentration; format: in vivo, CD1 mice; settings: CD1, mouse, plasma, sc, 1 mg/kg
assay endpoint: concentration at 0.5 h (ng/mL)
Response body: numeric value in ng/mL, unit text excluded.

Q: # return recorded concentration at 0.5 h for input COC(=O)C[C@](O)(CCCC(C)(C)O)C(=O)O[C@@H]1C(OC)=C[C@]23CCCN2CCc2cc4c(cc2[C@H]13)OCO4 [HHT, homoharringtonine]
Ans: 166

###

assay: Pharmacokinetic analysis, plasma and tissue concentration; assay type: in vivo, CD1 mice; conditions: CD1, mouse, heart, sc, 1 mg/kg
assay endpoint: concentration at 0.5 h (ng/mL)
State the answer as a number, implicitly in ng/mL.

Q: # return recorded concentration at 0.5 h for entry COC(=O)C[C@](O)(CCCC(C)(C)O)C(=O)O[C@@H]1C(OC)=C[C@]23CCCN2CCc2cc4c(cc2[C@H]13)OCO4
Ans: 541

###

assay: Pharmacokinetic analysis, plasma and tissue concentration; type: in vivo, CD1 mice; conditions: CD1, mouse, liver, po, 1 mg/kg
assay endpoint: concentration at 0.5 h (ng/mL)
Please give a number only; it is taken to be in ng/mL.

Q: State its concentration at 0.5 h: COC(=O)C[C@](O)(CCCC(C)(C)O)C(=O)O[C@@H]1C(OC)=C[C@]23CCCN2CCc2cc4c(cc2[C@H]13)OCO4
Ans: 184

###

assay: Pharmacokinetic analysis, plasma and tissue concentration; format: in vivo, CD1 mice; settings: CD1, mouse, plasma, sc, 1 mg/kg
assay endpoint: concentration at 8 h (ng/mL)
Write down the numeric answer in ng/mL and omit the unit.

Q: Supply concentration at 8 h value. Item: COC(=O)C[C@](O)(CCCC(C)(C)O)C(=O)O[C@@H]1C(OC)=C[C@]23CCCN2CCc2cc4c(cc2[C@H]13)OCO4
Ans: 11.1

###

experiment: Pharmacokinetic analysis, plasma and tissue concentration; type: in vivo, CD1 mice; conditions: CD1, mouse, kidney, sc, 1 mg/kg
assay endpoint: concentration at 8 h (ng/mL)
Just the number in ng/mL, nothing appended.

Q: Provide concentration at 8 h value for the following molecule: COC(=O)C[C@](O)(CCCC(C)(C)O)C(=O)O[C@@H]1C(OC)=C[C@]23CCCN2CCc2cc4c(cc2[C@H]13)OCO4
Ans: 95.6

###

test: Pharmacokinetic analysis, plasma and tissue concentration; format: in vivo, CD1 mice; conditions: CD1, mouse, pancreas, sc, 1 mg/kg
assay endpoint: concentration at 2 h (µg/mL)
Express the result in µg/mL but write the number alone.

Q: Supply concentration at 2 h value. Item: COC(=O)C[C@](O)(CCCC(C)(C)O)C(=O)O[C@@H]1C(OC)=C[C@]23CCCN2CCc2cc4c(cc2[C@H]13)OCO4 [HHT, homoharringtonine]
Ans: 0.512

###

test: Pharmacokinetic analysis, plasma and tissue concentration; type: in vivo, CD1 mice; conditions: CD1, mouse, heart, po, 1 mg/kg
assay endpoint: concentration at 0.5 h
Remember to quote the unit after the number.

Q: Specify reported concentration at 0.5 h for the molecule shown: COC(=O)C[C@](O)(CCCC(C)(C)O)C(=O)O[C@@H]1C(OC)=C[C@]23CCCN2CCc2cc4c(cc2[C@H]13)OCO4
Ans: 125 ng/mL

###

experiment: Pharmacokinetic analysis, plasma and tissue concentration; assay type: in vivo, CD1 mice; conditions: CD1, mouse, pancreas, sc, 1 mg/kg
assay endpoint: concentration at 8 h (µg/mL)
Provide the reading as a plain figure in µg/mL.

Q: Identify the reported concentration at 8 h for the following entry. COC(=O)C[C@](O)(CCCC(C)(C)O)C(=O)O[C@@H]1C(OC)=C[C@]23CCCN2CCc2cc4c(cc2[C@H]13)OCO4 [HHT, homoharringtonine]
Ans: 0.215

###

test: Pharmacokinetic analysis, plasma and tissue concentration; type: in vivo, CD1 mice; conditions: CD1, mouse, lung, sc, 1 mg/kg
assay endpoint: concentration at 2 h (ng/mL)
Unit ng/mL implied. Number only.

Q: Consider the compound COC(=O)C[C@](O)(CCCC(C)(C)O)C(=O)O[C@@H]1C(OC)=C[C@]23CCCN2CCc2cc4c(cc2[C@H]13)OCO4 . State its measured concentration at 2 h.
Ans: 287

###

test: Pharmacokinetic analysis, plasma and tissue concentration; format: in vivo, CD1 mice; conditions: CD1, mouse, stomach, po, 1 mg/kg
assay endpoint: concentration at 2 h (ng/mL)
# unit: ng/mL | format: bare number

Q: In one line, give reported concentration at 2 h of the entry COC(=O)C[C@](O)(CCCC(C)(C)O)C(=O)O[C@@H]1C(OC)=C[C@]23CCCN2CCc2cc4c(cc2[C@H]13)OCO4 .
Ans: 806

src = paper PMC8633684
